System: Calf thymus DNA
Assay: Binding affinity to calf thymus DNA by ethidium bromide displacement assay
Format: nucleic-acid assay
Details: Bos taurus
reported-property: logKa

>  <compound>
c1ccc2nc3c(nc2c1)c1ccccc1n3CCN1CCCCC1

>  <endpoint-value>
6.01

$$$$
>  <compound>
CCN(CC)CCn1c2ccc3ccccc3c2c2nc3ccccc3nc21

>  <endpoint-value>
6.79

$$$$
>  <compound>
CN1CCN(CCn2c3ccccc3c3nc4ccccc4nc32)CC1

>  <endpoint-value>
5.87

$$$$
>  <compound>
c1ccc2nc3c(nc2c1)c1ccccc1n3CCN1CCCC1

>  <endpoint-value>
6.05

$$$$
>  <compound>
c1ccc2nc3c(nc2c1)c1ccccc1n3CCN1CCOCC1

>  <endpoint-value>
5.89

$$$$
>  <compound>
CN1CCN(CCn2c3ccc4ccccc4c3c3nc4ccccc4nc32)CC1

>  <endpoint-value>
6.94

$$$$
>  <compound>
CC1CCN(CCn2c3ccccc3c3nc4ccccc4nc32)CC1

>  <endpoint-value>
5.98

$$$$
>  <compound>
c1ccc2nc3c(nc2c1)c1ccccc1n3CCN1CCCCCC1

>  <endpoint-value>
6.16

$$$$
>  <compound>
CCCN(CCC)CCn1c2ccc3ccccc3c2c2nc3ccccc3nc21

>  <endpoint-value>
6.91

$$$$
>  <compound>
CC1CCCCN1CCn1c2ccc3ccccc3c2c2nc3ccccc3nc21 (stereo not given)

>  <endpoint-value>
6.83

$$$$
>  <compound>
CN(C)CCn1c2ccccc2c2nc3ccccc3nc21

>  <endpoint-value>
5.93

$$$$
>  <compound>
c1ccc2c(c1)ccc1c2c2nc3ccccc3nc2n1CCN1CCCCC1

>  <endpoint-value>
6.61

$$$$
>  <compound>
CCCN(CCC)CCn1c2ccccc2c2nc3ccccc3nc21

>  <endpoint-value>
6.09

$$$$
>  <compound>
CN(C)CCn1c2ccc3ccccc3c2c2nc3ccccc3nc21

>  <endpoint-value>
6.94

$$$$
>  <compound>
CC1CCN(CCn2c3ccc4ccccc4c3c3nc4ccccc4nc32)CC1

>  <endpoint-value>
6.58

$$$$
>  <compound>
CCN(CC)CCn1c2ccccc2c2nc3ccccc3nc21

>  <endpoint-value>
6.07

$$$$
>  <compound>
c1ccc2c(c1)ccc1c2c2nc3ccccc3nc2n1CCN1CCOCC1

>  <endpoint-value>
6.94

$$$$
>  <compound>
CCCCN(C)CCn1c2ccccc2c2nc3ccccc3nc21

>  <endpoint-value>
5.93

$$$$
>  <compound>
CC1CCCCN1CCn1c2ccccc2c2nc3ccccc3nc21 (stereo not given)

>  <endpoint-value>
6.19

$$$$
>  <compound>
CCCCN(CC)CCn1c2ccccc2c2nc3ccccc3nc21

>  <endpoint-value>
6.01

$$$$
